system: NCI-H2110; assay: In vitro proliferation assay, NSCLC cell line NCI-H2110; type: cell-based; settings: Homo sapiens, 72 hours of drug exposure, read-out: 3424 IC50
MEASUREMENT_KIND: pIC50
Numbers only, as −log10 of the molar value.

Prompt: Need pIC50 of C[C@H](OP(=O)(N1CC1)N1CC1)c1ccc([N+](=O)[O-])c(Oc2cccc(C(=O)N(C)C)c2)c1 , thanks.
Completion: 8.96

###

system: NCIH1755; assay: In vitro proliferation assay, NSCLC cell line NCIH1755; format: cell-based; conditions: Homo sapiens, NCI-H1755, 72 hours of drug exposure, read-out: 3424 IC50
MEASUREMENT_KIND: IC50 (nM)
Numbers only, in nM.

Prompt: Which IC50 is reported with NCIH1755 for this entry: C[C@H](OP(=O)(N1CC1)N1CC1)c1ccc([N+](=O)[O-])c(Oc2cccc(C(=O)N(C)C)c2)c1 ?
Completion: 8.2

###

tested on: SK-HEP-1; experiment: In vitro proliferation assay, liver cancer cell line SK-HEP-1; format: cell-based; conditions: Homo sapiens, SK-HEP1, 96 hours of drug exposure, AKR1C3 protein Low, read-out: 3424 IC50
pIC50: −log10 of the molar value.
MEASUREMENT_KIND: pIC50

Prompt: Would you mind telling me what pIC50 value was observed for C[C@H](OP(=O)(N1CC1)N1CC1)c1ccc([N+](=O)[O-])c(Oc2cccc(C(=O)N(C)C)c2)c1 ?
Completion: < 6.00

###

test system: HLF; assay: In vitro proliferation assay, liver cancer cell line HLF; format: cell-based; details: Homo sapiens, 96 hours of drug exposure, AKR1C3 protein Low, read-out: 3424 IC50
pIC50: −log10 of the molar value.
MEASUREMENT_KIND: pIC50

Prompt: Recorded pIC50 for C[C@H](OP(=O)(N1CC1)N1CC1)c1ccc([N+](=O)[O-])c(Oc2cccc(C(=O)N(C)C)c2)c1 [Compound 3424] , please?
Completion: < 6.00

###

Test system: HLE
Assay: In vitro proliferation assay, liver cancer cell line HLE
Format: cell-based
Details: Homo sapiens, 96 hours of drug exposure, AKR1C3 protein Medium, read-out: 3424 IC50
Experimental: IC50 was calculated as described above.
MEASUREMENT_KIND: IC50 (nM)
One number for each entry, in nM.

Prompt: Return reported IC50; argument: C[C@H](OP(=O)(N1CC1)N1CC1)c1ccc([N+](=O)[O-])c(Oc2cccc(C(=O)N(C)C)c2)c1
Completion: 113

###

test system: NCI-H23; assay: In vitro proliferation assay, NSCLC cell line NCI-H23; format: cell-based; settings: Homo sapiens, 72 hours of drug exposure, read-out: 3424 IC50
pIC50: −log10 of the molar value.
MEASUREMENT_KIND: pIC50

Prompt: // lookup pIC50 for C[C@H](OP(=O)(N1CC1)N1CC1)c1ccc([N+](=O)[O-])c(Oc2cccc(C(=O)N(C)C)c2)c1
Completion: < 6.00

###

biological target: recombinant human AKR1C3 (Homo sapiens, UniProt P42330); construct: purchased Abcam (Cambridge, MA); test: Kinetic analysis of AKR1C3 towards various substrates (NADPH absorbance 340 nm); assay type: biochemical; details: substrate of AKR1C3; 25° C.; triplicate
Sequence (P42330 whole entry): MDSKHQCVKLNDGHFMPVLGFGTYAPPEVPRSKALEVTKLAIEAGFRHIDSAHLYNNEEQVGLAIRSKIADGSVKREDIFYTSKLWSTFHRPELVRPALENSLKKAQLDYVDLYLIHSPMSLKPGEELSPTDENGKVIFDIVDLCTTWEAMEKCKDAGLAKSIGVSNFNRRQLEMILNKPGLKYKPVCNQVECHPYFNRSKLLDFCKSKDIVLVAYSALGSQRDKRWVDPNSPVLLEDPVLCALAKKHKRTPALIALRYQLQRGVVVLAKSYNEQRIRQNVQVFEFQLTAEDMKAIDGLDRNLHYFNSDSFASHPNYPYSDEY
MEASUREMENT_KIND: Kcat

The following compounds have reported results that may help.
C[C@@H](OP(=O)(N1CC1)N1CC1)c1ccc([N+](=O)[O-])c(Oc2cccc(C(=O)N(C)C)c2)c1 [Compound 3423]
0.012 ± 0.00067 s⁻¹
C[C@]12CCC(=O)C=C1CC[C@@H]1[C@@H]2CC[C@]2(C)C(=O)CC[C@@H]12 [4-Androstenedione, 4-androstenedione, reference compound]
0.0012 ± 0.00017 s⁻¹
C[C@H](OP(=O)(N1CC1)N1CC1)c1ccc([N+](=O)[O-])c(Oc2cccc(C(=O)N(C)C)c2)c1 [Compound 3424]
0.0107 ± 0.00017 s⁻¹

Kindly review the next compound as well.
Prompt: Query (compound): C[C@]12CCC(=O)C[C@@H]1CC[C@@H]1[C@@H]2CC[C@]2(C)[C@@H](O)CC[C@@H]12 [5^α-DHT, dihydrotestosterone, reference compound] ; field requested: Kcat
Completion: 0.002 ± 0 s⁻¹
